TARGET_OR_TEST_SYSTEM: T1, human TMEM106B (human, UniProt Q9NUM4 2-274)
T1 construct: Full-length, on transiently transfected HEK293 cells, or natively expressed on HeLa, U251 and A549 cells; also called huTMEM106B; huTMEM
TEST_PROTOCOL: FACS, HEK293 transfectants;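 also: hybridoma supernatants incubated 30 min on ice with human TMEM106B-expressing HEK293 cells, binding read as anti-mouse-APC median fluorescence on live cells, relative to secondary-antibody-only wells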
READOUT_TYPE: fold over negative controls

{"columns": ["BINDER", "VAL"],
 "data": [
  ["anti-TMEM106B antibody TM-35 (antibody, V domains shown) VH: QVQLQQSGPELVRPGTSVKISCKAPGYTFTRHWMQWVRQRPGQGLEWIGEILPGSNNIYYNEKVKGKATLTVDTSSSTSYMQLSSLTSEDSAVYFCARSLYDYDGVFAYWGQGTLVTVSA VL: DVLMTQIPLSLPVSLGDQASISCRSSQSIVHRNGNTYLEWYLQKPGQSPKLLIYKVSNRFSGVPDRFSGSGSGTDFTLKISRVEAEDLGVYYCFQGSHVPYTFGGGTKLEIK", "> 2 fold"]
]}

Supply reported fold over negative controls belonging to this binder: anti-TMEM106B antibody TM-12 (antibody, V domains shown) VH: EVQLQQSGAELMRPGASVKLSCTASGFNIQDYYMYWVKQRPEQGLEWIGRIDPEDGDAEYAPKFQGKATMTADTSSNTAYLQLSSLTSEDTAVYYCSTRVIYDGYYRTMDCWGQGTSVTVSS VL: DVLMTQIPLSLPVSLGDQASISCRSSQTIVHSNGNTYLEWYLKKPGQSPKLLIDKISNRFSGVPDRFSGSGSGTDFTLKISRVEAEDLGVYYCFQGSHVPYTFGGGTKLEIK
> 2 fold
